Target: A₂ receptor (Rattus norvegicus, UniProt P30543)
Construct: from tissue; host or cells: rat corpus striatum membrane preparation
Sequence (P30543 whole entry): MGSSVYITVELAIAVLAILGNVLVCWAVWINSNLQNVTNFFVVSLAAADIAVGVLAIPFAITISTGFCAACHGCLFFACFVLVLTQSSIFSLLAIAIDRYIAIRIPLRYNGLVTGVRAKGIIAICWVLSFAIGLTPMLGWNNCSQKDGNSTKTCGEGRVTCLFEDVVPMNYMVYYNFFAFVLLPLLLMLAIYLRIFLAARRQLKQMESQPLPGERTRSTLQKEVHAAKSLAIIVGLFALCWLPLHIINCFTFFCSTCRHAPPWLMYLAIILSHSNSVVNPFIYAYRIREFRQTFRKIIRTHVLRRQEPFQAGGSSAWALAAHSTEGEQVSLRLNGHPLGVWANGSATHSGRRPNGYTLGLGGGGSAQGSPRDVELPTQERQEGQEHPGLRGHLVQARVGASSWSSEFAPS
Assay: Adenosine A₂ receptor binding test (³H-NECA binding)
Conditions: read-out: Inhibition (%) A₂ Receptor
Description: The similar procedure as in the above-described adenosine A₁ receptor binding test was repeated using rat corpus striatum to obtain the final precipitate of the tissue thereof. […] The mixture solution was allowed to stand at 25°C for 120 minutes and then treated in the same manner as in the adenosine A₁ receptor binding test to determine the radioactivity bound to the A₂ receptors. […]
This listing pairs compounds with measured inhibition at 0.1 µM.

compound	inhibition at 0.1 µM [%]
COc1ccc(/C=C/c2nc3c([nH]2)c(=O)n(C)c(=O)n3C)c(C)c1C [Compound 21]	56
CCn1c(=O)c2[nH]c(/C=C/c3ccc4c(c3)OCCO4)nc2n(CC)c1=O [Compound 17]	70
CCn1c(=O)c2c(nc(/C=C/c3cccc(OC)c3OC)n2C)n(CC)c1=O [Compound 4]	57
COc1ccc(/C=C/c2nc3c(c(=O)n(C)c(=O)n3C)n2C)c(OC)c1OC [Compound 20, (E)-8-(2,3,4-Trimethoxystyryl)caffeine]	51
COc1ccc(/C=C/c2nc3c([nH]2)c(=O)n(C)c(=O)n3C)c(OC)c1OC [Compound 19]	65
CCn1c(=O)c2c(nc(/C=C/c3ccc(OC)c(OC)c3OC)n2C)n(CC)c1=O [Compound 8]	80
CCn1c(=O)c2c(nc(/C=C/c3ccc4c(c3)OCCO4)n2C)n(CC)c1=O [Compound 18]	84
CCn1c(=O)c2[nH]c(/C=C/c3ccc(OC)c(C)c3OC)nc2n(CC)c1=O [Compound 13]	77

====

test system: dd-strain male mice; experiment: Acute toxicity test (minimum lethal dose, oral); type: in vivo; conditions: oral administration, three mice per group, mortality seven days after administration

molecule	MLD
CCn1c(=O)c2c(nc(/C=C/c3cc(C)c(OC)cc3C)n2C)n(CC)c1=O [Compound 12]	> 300 mg/kg
CCn1c(=O)c2c(nc(/C=C/c3cccc(OC)c3)n2C)n(CC)c1=O [Compound 40]	> 300 mg/kg
CCn1c(=O)c2c(nc(/C=C/c3ccc(OC)c(C)c3C)n2C)n(CC)c1=O [Compound 10]	> 300 mg/kg
CCn1c(=O)c2[nH]c(/C=C/c3cccc(OC)c3)nc2n(CC)c1=O [Compound 39]	> 100 mg/kg
CCn1c(=O)c2c(nc(/C=C/c3ccc(OC)c(C)c3OC)n2C)n(CC)c1=O [Compound 14]	> 300 mg/kg
CCn1c(=O)c2c(nc(/C=C/c3ccc(F)c(F)c3)n2C)n(CC)c1=O [Compound 54]	> 300 mg/kg
CCn1c(=O)c2c(nc(/C=C/c3ccc(OCOC)cc3)n2C)n(CC)c1=O [Compound 82]	> 100 mg/kg
CCn1c(=O)c2[nH]c(/C(C)=C/c3ccccc3)nc2n(CC)c1=O [Compound 71]	> 100 mg/kg

====

biological target: A₂ receptor (Rattus norvegicus, UniProt P30543); construct: from tissue; host or cells: rat corpus striatum membrane preparation; test: Adenosine A₂ receptor binding test (³H-NECA binding); details: read-out: Inhibition (%) A₂ Receptor
I would appreciate it if you labelled entries Y when inhibition at 10 µM is 90% or higher, otherwise N.

molecule	assignedLabel
CCn1c(=O)c2[nH]c(/C=C/c3ccc(OC)c(OC)c3OC)nc2n(CC)c1=O	N
CCn1c(=O)c2[nH]c(/C=C/c3ccc(OC)c(C)c3C)nc2n(CC)c1=O	N
COc1ccc(/C=C/c2nc3c([nH]2)c(=O)n(C)c(=O)n3C)c(C)c1C	N
Cn1c(=O)c2c(nc(/C=C/c3ccc4c(c3)OCO4)n2C)n(C)c1=O [Compound 24, (E)-8-(3,4-Methylenedioxystyryl)caffeine]	N
CCn1c(=O)c2c(nc(/C=C/c3ccc(OC)c(OC)c3OC)n2C)n(CC)c1=O	Y
